meta.source: the supplement of paper PMC12764529

Experiment: folding stability dG unfold from chymotrypsin proteolysis; higher = more stable
Exercise: for every item that follows, state its recorded folding stability dG unfold.
Answers are plain numbers, in kcal/mol.

# annotated cases, reported folding stability dG unfold shown
>  <seqText>
SAGGSASDVVPIDKKITITLPGGEKYEVTEMTVLPDGTVKMKIIKKSPNGNPTEEEITLSPEELVDLSAGGS [r16_498_JUSTAS]

>  <valueReported>
2.59

$$$$
>  <seqText>
SAGGSAGGSAGMRTVEVKVVFKEGDKEFEKTITITLSPDDPSLEERAKEIAEKGIVVEIIRSAGGSAGGSAG [r3_30_JUSTAS]

>  <valueReported>
1.99

$$$$
>  <seqText>
SAGGSAIFVVKIEPPNGNPITFMFWFKTPEEAESQVEEIAEQLPPDWKVEVEYIPAEDLKNGKPFFSAGGSA [r15_469_TrROS]

>  <valueReported>
2.13

$$$$
>  <seqText>
SAGGSAGGSMETVVTVPLPDGRTLTITRYPDGTVTVTYPDGTPVATRPVAPDTSDEAVVAALASAGGSAGGS [r12_990_JUSTAS]

>  <valueReported>
1.83

$$$$

Please supply folding stability dG unfold for each of the following items, keeping them in order.
1. SAGGSAMNVKSKETVEELFSESPEKVSIKKTTTYTFPNSKTVEITYYKPDGKKIATKNLPLSEYSSSAGGSA [r15_755_JUSTAS]
2. SWYIIRIEIKIRNPKDGKSFDIEIMIHAPVEEAKEIAKEIASMFPGMRVEVKITEVMPMPPMTPEQLEKMSA [r9_421_TrROS]

RESULT:
1. -0.238
2. 3.72

Please supply folding stability dG unfold for each of the following items, keeping them in order.
1. SAGGSAGGSAGGRKRYRFKPGQRLEPRLVFRLKLRLELERDEDGNLSLKLELEIEEVRLLSAGGSAGGSAGG [r7_572_TrROS_Hall]
2. SAMVVPVKVELEIRVPGTPEEALEIAEELAKAFESLGNVEVDLELIEKSEDGSYIIKLTVTNYLPPELFSAG [r14_413_TrMRF]

RESULT:
1: 4.41; 2: 1.99

Please supply folding stability dG unfold for each of the following items, keeping them in order.
1. SAGGPEKKILVARDSSDPNLPLEKIKEELEKKGFPPAEVTSAATEPLEKAREKAEKEGNPLIVLPVESAGGS [r16_94_JUSTAS]
2. SAGGSAGGGSMGSVSVSETTTTSTEGSTTTTTTVHTTTVGGTTTTTTTTTTTSPTPGASSPATASAGGSAGG [r6_684_JUSTAS]
3. SAGKMVKVEIVIDVPPEEITEEELKAILEEEAEEVEITFDEETGKITITVTVSEEEAEKLREALKELGASAG [r5_378_TrROS_Hall]
4. SAGGSAGGSPKVTTSTSSSVLGNGRLESTVSNPDLGVTTLTLTDPESDVVTTFTETAGSTTPAASAGGSAGG [r6_757_JUSTAS]
5. SAGGSAGGSAGGSVTSTSSVGSSPGSTTTLTYPEKPLYVTVYTELKDDPTVVTTETFPLLSAGGSAGGSAGG [r7_509_JUSTAS]
6. SAGGSAGGKAKIKKIEVELNEDGTLKVTAYDEETNEKITLEVKLPKPKPVYFDEEKLKEELEKKSAGGSAGG [r6_627_TrROS_Hall]

RESULT:
1: -0.927; 2: 1.71; 3: 1.04; 4: 0.815; 5: 1.73; 6: 0.963

---

Assay: folding stability dG unfold (combined trypsin and chymotrypsin); higher = more stable
Exercise: for every item that follows, state its recorded folding stability dG unfold.
Numbers only, in kcal/mol.

>  <seqText>
SAGDGITVNPEKVTLTLDITLPDGTVLRVTVTLTPDGVEVTVEPVPVPPLPGATSPEEAEELLKQALASSAG [r5_272_TrMRF]

>  <reportedProperty>
folding stability dG unfold

>  <valueReported>
2.34

$$$$

Please supply folding stability dG unfold for each of the following items, keeping them in order.
1. SAGGSAGGSAGGSSMKEVTLYVPPGTLDPAVVEKLREEGVKVTVVPVPLSREPDGPPVASAGGSAGGSAGGS [r4_294_JUSTAS]
2. SAGGSAGGSAGKVVLAKAKVTPPDGSEYEFDLAIEVPDDVVLVVGLHFDYPDQVDFVFEGSAGGSAGGSAGG [r11_781_TrMRF]
3. SAGGSAGGSADPNAFPITIFTFKMEIEDVEKTPNGQPELRYKMEVVEIRPIWLPPDDLEDLSAGGSAGGSAG [r3_121_TrROS]
4. SAGGSAGGSAGGSAGVIVSLSPAPPSADTVVELPKGVTVTVTTVNGERVLTTLVPEALLSAGGSAGGSAGGS [r10_355_JUSTAS]
5. SAGGSAGGSLRPDEEVVAILPNGEKVPFKVESVEVSPDGSVKANLTLPGGKSLGPANLVFKPESAGGSAGGS [r12_735_TrMRF]

RESULT:
[0.0503, 1.2, 3.79, 0.217, -0.629]

---

Experiment: folding stability dG unfold (combined trypsin and chymotrypsin); higher = more stable
Mark 1 for reported folding stability dG unfold of 2 kcal/mol or greater; mark -1 for anything smaller.

Please review the entries below; each comes with its answer.
>  <seqText>
SATGKLAELLEEAFPDRPIASAEILGVEPLPDGRPALRFLLTFEDGSKLVVTVTSADHPEVLEAARENQSAG [r14_143_TrMRF]

>  <group>
1

$$$$
>  <seqText>
SAGMVTITVETTDPQGNWTTKTYEFPLDPGYSLDDVIKRHSPPNAKKYEVTKTEPPPPVTEIKLTVEPSSAG [r5_227_JUSTAS]

>  <group>
-1

$$$$
>  <seqText>
SAGGSAGGSKLTIMVKMDSAEDAEEEARSLLKELGIKPGMKEVKVSMFPRGNEYYAHVEIKFKSAGGSAGGS [r12_7_TrROS]

>  <group>
-1

$$$$

QUERY: Given the entry SAGGSMTFKAEVTPLDTFPLFDANGKPVAEVKVYTATIEFPDGSRVEIRGVEVGDELYILEIRPLDSAGGSA [r2_158_TrMRF] , answer whether its folding stability dG unfold meets or surpasses 2 kcal/mol.
RESULT: 1

QUERY: Given the entry SAGGMEEIAEKLPVTKIETLEVDPEPPVVKVKLTLKDESGTEKEIELTIELPPEPLPVPKFPPERILLSAGG [r13_608_JUSTAS] , answer whether its folding stability dG unfold meets or surpasses 2 kcal/mol.
RESULT: -1

QUERY: Given the entry SAGGKWKPIGKFEFTLPDGVKVTVTVEENPPLELKITAEVEIYVPPPKPPVPPLGPEEVKKWLEENKSAGGS [r16_6_TrMRF] , answer whether its folding stability dG unfold meets or surpasses 2 kcal/mol.
RESULT: -1

QUERY: Given the entry SMPTLKITIEKKLPNGEKKKIEIEISLEELLKEARKKKGLESEEEAREALAKELAEKLKEEGYKVKIEPVSA [r9_868_TrROS_Hall] , answer whether its folding stability dG unfold meets or surpasses 2 kcal/mol.
RESULT: -1

---

Test: folding stability dG unfold from chymotrypsin proteolysis; higher = more stable
reportedProperty: folding stability dG unfold (kcal/mol)
Answers are plain numbers, in kcal/mol.

# annotated cases, reported folding stability dG unfold shown
>  <seqText>
SAGGSAEEIARKLAEELAEEGEEVEVEVVEVEVEKVDGKEKVIRIRVKVKLPNGEELELELEIKLDELSAGG [r13_215_TrROS_Hall]

>  <folding stability dG unfold / kcal/mol>
2.18

$$$$
>  <seqText>
SAGGKKKKTIVIVLEVSEEEAEKIIEALKKELEKKGFKIEKIEVRKVPDKPMVIVTIKLENGEELTFISAGG [r13_421_TrROS_Hall]

>  <folding stability dG unfold / kcal/mol>
2.64

$$$$
>  <seqText>
SMPEKYIVRVEVRGRDGKTVTFEAEATVDSSDFDDFIEAILEAPGLEDADEVRFYVYRLGTGRPEEFTVPSA [r9_97_TrMRF]

>  <folding stability dG unfold / kcal/mol>
3.03

$$$$
>  <seqText>
SLLELAKQANGPLKINVKSEWVTLPDGTPVEIINVEVSQDPNSDVATVTKTVVDPDKDTSSTSTSTIPLGSS [r1_448_JUSTAS]

>  <folding stability dG unfold / kcal/mol>
0.316

$$$$
>  <seqText>
SAGGMTVTVLEVTEEEVIIDDKKEKIITITIKLPDGTEITVTLSTSEIEAKGLTKEEAVEYIAKKLLSAGGS [r16_625_JUSTAS]

>  <folding stability dG unfold / kcal/mol>
4.16

$$$$

Please supply folding stability dG unfold for each of the following items, keeping them in order.
1. SAGGSAGGSAMLVIRVVTEDGEEREIEIPEGEELTLEEILAALRTPDGREVPIERVEIFPASAGGSAGGSAG [r3_465_TrROS_Hall]
2. SAGMKVILIIAPEEKIEEIFEEIKKIAEEHGLDLKLDKIEPLPEKGYLVIVTVKNPESDETTVILVLVPSAG [r5_41_TrMRF]

RESULT:
1.75
3.75
